Tested on: Schistosoma mansoni adult worms
Assay: Schistosoma mansoni adult worm phenotypic screen
Conditions: 5 uM; 7 h
Measured endpoint: Adult worm screen phenotype, 7 h

>  <Mol smiles>
N#Cc1ccc(Oc2ccc3c(c2)COB3O)nc1

>  <Measured endpoint>
Adult worm screen phenotype, 7 h

>  <Data value>
O−

$$$$
>  <Mol smiles>
CC(C)OCCOc1nc(Oc2ccc3c(c2)COB3O)ccc1C#N

>  <Measured endpoint>
Adult worm screen phenotype, 7 h

>  <Data value>
O++

$$$$
>  <Mol smiles>
COc1nc(Oc2cc3c(cc2F)B(O)OC3)ccc1C#N

>  <Measured endpoint>
Adult worm screen phenotype, 7 h

>  <Data value>
O++

$$$$
>  <Mol smiles>
N#Cc1ccc(Oc2ccc3c(c2)COB3O)nc1OC1CCCC1

>  <Measured endpoint>
Adult worm screen phenotype, 7 h

>  <Data value>
O+

$$$$
